Target: human PCSK9 (proprotein convertase subtilisin kexin type 9) (human, UniProt Q8NBP7 31-692)
Sequence (Q8NBP7 31-692 limits assumed): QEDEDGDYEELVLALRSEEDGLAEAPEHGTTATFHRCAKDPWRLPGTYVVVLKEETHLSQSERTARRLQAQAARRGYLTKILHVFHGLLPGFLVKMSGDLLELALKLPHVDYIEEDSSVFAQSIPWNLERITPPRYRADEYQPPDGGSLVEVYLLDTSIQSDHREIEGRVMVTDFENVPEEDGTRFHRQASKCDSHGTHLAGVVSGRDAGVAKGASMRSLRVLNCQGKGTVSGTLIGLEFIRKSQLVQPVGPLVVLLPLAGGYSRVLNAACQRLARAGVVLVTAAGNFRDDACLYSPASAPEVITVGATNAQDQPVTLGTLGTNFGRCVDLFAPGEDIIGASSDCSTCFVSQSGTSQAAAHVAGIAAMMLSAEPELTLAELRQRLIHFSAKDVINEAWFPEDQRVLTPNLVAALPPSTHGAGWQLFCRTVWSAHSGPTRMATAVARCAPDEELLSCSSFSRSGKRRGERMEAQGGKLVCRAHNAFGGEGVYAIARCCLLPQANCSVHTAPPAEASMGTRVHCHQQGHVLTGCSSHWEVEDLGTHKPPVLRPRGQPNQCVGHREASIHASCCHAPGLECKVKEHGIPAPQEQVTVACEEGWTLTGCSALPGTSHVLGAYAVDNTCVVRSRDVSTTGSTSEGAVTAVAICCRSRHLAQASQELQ
Assay: cell-based or functional assay
PARAMETER MEASURED: LDLR Depletion (% inhibition at 75 nM) (%)

1: 2382D09 (designed binder) MGVSDVPRDLEVVAATPTSLLISWDAPAEGYGYYRITYGETGGNSPVQEFTVPVSKGTATISGLKPGVDYTITVYAVEFDFPGAGYYHRPISINYRTEIDKPSQHHHHHH
2: 2381G06 (designed binder) MGVSDVPRDLEVVAATPTSLLISWSEKLDGKARRGYYRITYGETGGNSPVQQFTVPGSKGTATISGLKPGVDYTITVYAVEFPYDHSGYYHRPISINYRTEIDKPSQHHHHHH
Returns the identifier with the smallest measured LDLR Depletion (% inhibition at 75 nM) among 1 and 2 . Answer = label.
2
(2: 57.7%, 1: 109%)
